PROTOCOL_NOTES: Half life in human liver microsomes
Assay type: ADME, Microsome
Some molecules, each annotated with its measured half-life.
ASSAY_ENDPOINT: half-life (h)

                                smiles_repr  assay_result
0   CC1(n2nnc3cnc4[nH]ccc4c32)CCN(CCC#N)CC1           4.8
1      N#CCCN1CCC(n2nnc3cnc4[nH]ccc4c32)CC1           1.9
2  N#CCCN[C@H]1CC[C@H](n2nnc3cnc4[nH]ccc4c32)CC1           2.3
3  c1ccc(CN2CCC(n3nnc4cnc5[nH]ccc5c43)CC2)cc1           0.5

---

Below: a set of entries, each annotated with reported pKi.
TEST_SYSTEM: Tyrosine-protein kinase JAK1 (Homo sapiens, UniProt P23458)
Sequence (P23458 whole entry): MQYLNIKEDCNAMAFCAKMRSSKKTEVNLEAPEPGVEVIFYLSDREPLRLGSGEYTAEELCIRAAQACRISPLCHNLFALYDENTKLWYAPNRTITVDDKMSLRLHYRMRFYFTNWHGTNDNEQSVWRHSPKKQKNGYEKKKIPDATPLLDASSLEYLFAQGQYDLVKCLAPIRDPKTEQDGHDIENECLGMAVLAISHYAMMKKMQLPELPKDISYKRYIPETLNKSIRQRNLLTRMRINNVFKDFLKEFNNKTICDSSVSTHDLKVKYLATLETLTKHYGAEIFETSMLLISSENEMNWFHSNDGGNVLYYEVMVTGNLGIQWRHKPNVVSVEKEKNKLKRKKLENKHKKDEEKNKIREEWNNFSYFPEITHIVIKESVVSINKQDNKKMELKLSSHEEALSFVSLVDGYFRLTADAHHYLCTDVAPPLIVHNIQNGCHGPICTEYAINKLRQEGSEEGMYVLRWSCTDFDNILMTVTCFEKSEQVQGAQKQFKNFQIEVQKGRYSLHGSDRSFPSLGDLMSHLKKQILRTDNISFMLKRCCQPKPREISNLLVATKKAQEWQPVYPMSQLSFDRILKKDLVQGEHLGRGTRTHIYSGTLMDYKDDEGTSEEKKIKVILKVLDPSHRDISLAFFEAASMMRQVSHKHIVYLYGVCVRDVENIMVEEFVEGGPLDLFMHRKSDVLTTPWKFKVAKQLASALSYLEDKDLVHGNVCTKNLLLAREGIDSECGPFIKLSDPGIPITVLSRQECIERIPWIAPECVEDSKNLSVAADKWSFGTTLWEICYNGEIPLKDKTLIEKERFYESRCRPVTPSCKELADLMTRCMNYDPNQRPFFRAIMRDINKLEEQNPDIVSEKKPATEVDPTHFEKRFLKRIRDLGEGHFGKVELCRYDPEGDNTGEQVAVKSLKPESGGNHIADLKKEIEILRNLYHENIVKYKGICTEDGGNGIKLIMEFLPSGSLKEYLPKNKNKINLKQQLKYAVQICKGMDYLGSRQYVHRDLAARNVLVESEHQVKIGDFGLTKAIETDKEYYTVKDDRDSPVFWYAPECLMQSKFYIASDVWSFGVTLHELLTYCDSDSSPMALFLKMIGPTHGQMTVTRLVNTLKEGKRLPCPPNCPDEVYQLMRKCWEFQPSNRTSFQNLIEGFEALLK
pKi: −log10 of the molar value.
ASSAY_ENDPOINT: pKi

In [3]: df
Out[3]:
                                   molecule  assay_endpoint  assay_result
0  COC(=O)N[C@@H]1CC[C@@H](n2nnc3cnc4[nH]ccc4c32)C1 (racemic)             pKi          7.92
1  CC(C)CC(=O)N[C@H]1CC[C@H](n2nnc3cnc4[nH]ccc4c32)CC1             pKi          8.33
2  CC(C)(C)OC(=O)N[C@H]1CC[C@H](n2nnc3cnc4[nH]ccc4c32)CC1             pKi          6.92
3  c1cncc(CN2CCC(n3nnc4cnc5[nH]ccc5c43)CC2)c1             pKi          7.80
4  CN1CCC[C@H]1C(=O)N1CCC(n2nnc3cnc4[nH]ccc4c32)CC1             pKi          6.92
5  F[C@H]1CNCC[C@H]1n1nnc2cnc3[nH]ccc3c21 (racemic)             pKi          6.70
6  CS(=O)(=O)N1CCC(n2nnc3cnc4[nH]ccc4c32)CC1             pKi          8.21
7         c1cc2c(ncc3nnn(C4CCNCC4)c32)[nH]1             pKi          6.68
8      N#CCCN1CCC(n2nnc3cnc4[nH]ccc4c32)CC1             pKi          8.68

---

Listed compounds paired with reported bioavailability
PROTOCOL_NOTES: Oral bioavailability in Sprague-Dawley rat at 5 mg/kg
Assay type: ADME, organism-based
MEASUREMENT_PARAMETERS: in vivo
ASSAY_ENDPOINT: bioavailability (%)

In [3]: df
Out[3]:
                                smiles_repr   assay_endpoint  result_units  qualifier_operator  assay_result
0  N#CCC(=O)N1CCC[C@@H](n2nnc3cnc4[nH]ccc4c32)C1  bioavailability             %                   =            41
1  CC1(n2nnc3cnc4[nH]ccc4c32)CCN(S(C)(=O)=O)CC1  bioavailability             %                   =            82
2      N#CCCN1CCC(n2nnc3cnc4[nH]ccc4c32)CC1  bioavailability             %                   =            28
3  CS(=O)(=O)N1CCC(n2nnc3cnc4[nH]ccc4c32)CC1  bioavailability             %                   >           100
4  N#CCCN[C@H]1CC[C@H](n2nnc3cnc4[nH]ccc4c32)CC1  bioavailability             %                   =            44
